Target: Bub1 (Homo sapiens)
Construct: catalytic domain of human Bub1 (amino acids 704-1085); His6 (N); made in house; host or cells: insect cells (Hi5)
Assay: Bub1 high ATP kinase assay (TR-FRET)
Assay type: biochemical
Details: Bub1 high ATP (2 mM) IC50, TR-FRET, 2 mM ATP; Table 3
Readout name: IC50 (µM)

a: COc1c(Cl)cccc1Nc1c(-c2ccncc2OC[C@@H]2COCCO2)[nH]c2c1C(=O)NC1(CC1)C2 [Example 111]
b: COc1c(Cl)cccc1Nc1c(-c2ccncc2OCC2CCCCO2)[nH]c2c1C(=O)N[C@H](C)C2 (single isomer, unassigned) [Example 29]
c: COc1c(Cl)cccc1Nc1c(-c2ccncc2OC[C@@H]2COCCN2C)[nH]c2c1C(=O)N[C@H](C)C2 [Example 93]
d: COc1c(Cl)cccc1Nc1c(-c2ccncc2OCCC(C)OC)[nH]c2c1C(=O)N[C@H](C)C2 (single isomer, unassigned) [Example 122]
Q. sort_by: IC50; order: ascending; scope: items listed above Output spec: labels arranged per the requested ranking.
A. a, d, b, c
(a: 0.374 µM, d: 0.741 µM, b: 2.39 µM, c: 5.42 µM)

====

Biological target: Bub1 (Homo sapiens)
Construct: catalytic domain of human Bub1 (amino acids 704-1085); His6 (N); made in house; host or cells: insect cells (Hi5)
Assay: Bub1 high ATP kinase assay (TR-FRET)
Type: biochemical
Conditions: Bub1 high ATP (2 mM) IC50, TR-FRET, 2 mM ATP; Table 3
Readout name: IC50 (µM)

Compound	Readout units	IC50
Cc1c(Cl)cccc1Nc1c(-c2ccncc2OCC2COCCO2)[nH]c2c1C(=O)NCC2C (stereo not drawn) [Example 66]	µM	1.73
COc1c(Cl)cccc1Nc1c(-c2ccncc2OCC(C)(C)OC)[nH]c2c1C(=O)NCC2CCO (single isomer, unassigned) [Example 14]	µM	5.39

A: COc1c(Cl)cccc1Nc1c(-c2ccncc2OC[C@@H]2CCCO2)[nH]c2c1C(=O)NC(C(F)(F)F)C2 (mixture of isomers) [Example 38]
B: COc1c(Cl)cccc1Nc1c(-c2ccncc2OCC(C)(C)OC)[nH]c2c1C(=O)N[C@H](C)C2 [Example 1]
Q. Larger number for IC50: A , or B ? // return label of chosen record
A. B
(B: 1.32 µM, A: 0.628 µM)

I: COc1c(Cl)cccc1Nc1c(-c2ccncc2OCC2COC(C)(C)CO2)[nH]c2c1C(=O)NC1(CCC1)C2 (single isomer, unassigned) [Example 131]
II: COc1c(Cl)cccc1Nc1c(-c2ccncc2OCC(C)(C)OC)[nH]c2c1C(=O)N[C@@H](C)C2 [Example 2]
III: COc1c(Cl)cccc1Nc1c(-c2ccncc2OC[C@@H]2CCCO2)[nH]c2c1C(=O)NC(C)C2 (mixture of isomers) [Example 3]
IV: Cc1c(Cl)cccc1Nc1c(-c2ccncc2OC[C@@H]2CCCO2)[nH]c2c1C(=O)NCC2C (single isomer, unassigned) [Example 59]
Q. Hey, quick one: sort these by IC50, largest value first please. Output spec: labels arranged per the requested ranking.
A. IV, III, I, II

====

Target: Bub1 (Homo sapiens, UniProt O43683)
Construct: catalytic domain of human Bub1 (amino acids 704-1085); His6 (N); made in house; host or cells: insect cells (Hi5)
Sequence (O43683 704-1085): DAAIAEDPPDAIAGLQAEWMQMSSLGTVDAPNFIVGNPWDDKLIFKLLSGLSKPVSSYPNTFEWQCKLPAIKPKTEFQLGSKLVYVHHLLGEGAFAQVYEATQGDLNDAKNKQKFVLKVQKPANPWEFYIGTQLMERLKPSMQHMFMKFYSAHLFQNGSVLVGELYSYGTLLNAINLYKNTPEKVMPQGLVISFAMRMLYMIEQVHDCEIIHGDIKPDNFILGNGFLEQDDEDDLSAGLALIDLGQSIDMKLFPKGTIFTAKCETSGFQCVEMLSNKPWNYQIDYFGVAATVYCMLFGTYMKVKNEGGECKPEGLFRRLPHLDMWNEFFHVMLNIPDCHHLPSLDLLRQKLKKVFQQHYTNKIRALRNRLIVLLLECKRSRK
Assay: Bub1 high ATP kinase assay (TR-FRET)
Format: biochemical
Conditions: Bub1 high ATP (2 mM) IC50, TR-FRET, 2 mM ATP; Table 3
pIC50: −log10 of the molar value.
Readout name: pIC50

Compound	Observed
COc1c(Cl)cccc1Nc1c(-c2ccncc2OCC2COCCO2)[nH]c2c1C(=O)N[C@@H]1CCC[C@H]21 (mixture of isomers) [Example 52]	5.00
Cc1c(Cl)cccc1Nc1c(-c2ccncc2OCC2COCCO2)[nH]c2c1C(=O)NCC2C (single isomer, unassigned) [Example 67]	5.00

a: Cc1c(Cl)cccc1Nc1c(-c2ccncc2OC[C@@H]2CCCO2)[nH]c2c1C(=O)NCC2C (mixture of isomers) [Example 58]
b: C[C@@H]1Cc2[nH]c(-c3ccncc3OCC3COCCO3)c(Nc3cccc(F)c3CC(F)F)c2C(=O)N1 (stereo partly drawn)
Q. Between a and b , which one has the lower reported pIC50 value? // return label of chosen record
A. b
(b: 5.21, a: 5.47)

====

Target: Bub1 (Homo sapiens, UniProt O43683)
Construct: catalytic domain of human Bub1 (amino acids 704-1085); His6 (N); made in house; host or cells: insect cells (Hi5)
Assay: Bub1 high ATP kinase assay (TR-FRET)
Format: biochemical
Conditions: Bub1 high ATP (2 mM) IC50, TR-FRET, 2 mM ATP; Table 3
Readout name: IC50 (nM)

// known answers, use as guide
Molecule	Readout units	Observed
CCc1c(Cl)cccc1Nc1c(-c2ccncc2OC[C@@H]2CCCO2)[nH]c2c1C(=O)N[C@H](C)C2 [Example 109]	nM	3590
C=CCOCCOc1cnccc1-c1[nH]c2c(c1Nc1cccc(Cl)c1OC)C(=O)NCC2CC=C (stereo not shown) [Example 114]	nM	2070

I: CCc1c(Cl)cccc1Nc1c(-c2ccncc2OC[C@@H]2COCCO2)[nH]c2c1C(=O)N[C@H](C)C2 [Example 110]
II: COc1c(Cl)cccc1Nc1c(-c2ccncc2OCC(C)OC)[nH]c2c1C(=O)N[C@H](C)C2 (mixture of isomers) [Example 80]
III: COc1c(Cl)cccc1Nc1c(-c2ccncc2OCC2COCCO2)[nH]c2c1C(=O)NCC2C (stereo not shown) [Example 33]
IV: COc1c(Cl)cccc1Nc1c(-c2ccncc2OCCC(C)OC)[nH]c2c1C(=O)N[C@H](C)C2 (single isomer, unassigned) [Example 121]
V: COc1c(Cl)cccc1Nc1c(-c2ccncc2OC[C@@H]2COCCN2C)[nH]c2c1C(=O)NCC2CCO (single isomer, unassigned) [Example 115]
Q. Hey, quick one: sort these by IC50, largest value first please. Output spec: labels arranged per the requested ranking.
A. V, III, II, IV, I

a: COc1c(Cl)cccc1Nc1c(-c2ccncc2OCC2COC(C)(C)CO2)[nH]c2c1C(=O)NC1(CC1)C2 (single isomer, unassigned) [Example 134]
b: COc1c(Cl)cccc1Nc1c(-c2ccncc2OC[C@@H]2CCCO2)[nH]c2c1C(=O)N[C@@H](C)C2 (single isomer, unassigned) [Example 4]
Q. Between a and b , which one has the lower reported IC50 value? // return label of chosen record
A. a
(a: 1160 nM, b: 3010 nM)

====

Target: Ba/F3-EGFR-WT cells (Homo sapiens)
Test: Ba/F3 cell survival assay, wild type EGFR
Type: cell-based
Details: Cell Titer-Glo, 48 h, with 10 ng/mL EGF; Table 4; read-out: BA/F3 (wild type) IC50
Readout name: GI50 (nM)
Unit nM implied. Number only.

Compound	Target of assay	Readout units	Observed
COc1c(Cl)cccc1Nc1c(-c2ccncc2OCC2(C)CCO2)[nH]c2c1C(=O)NCC2CCO (single isomer, unassigned) [Example 20]	Ba/F3-EGFR-WT cells (Homo sapiens)	nM	1170

Q. Specify GI50 for COc1c(Cl)cccc1Nc1c(-c2ccncc2OCCC2CCCCO2)[nH]c2c1C(=O)N[C@H](C)C2 (single isomer, unassigned) [Example 87] and stop.
A. 421

Q. Specify GI50 for COc1c(Cl)cccc1Nc1c(-c2ccncc2OCC2COC(C)(C)CO2)[nH]c2c1C(=O)NC1(CCC1)C2 (stereo not drawn) [Example 129] and stop.
A. 293

Q. Specify GI50 for COc1c(Cl)cccc1Nc1c(-c2ccncc2OCC2COC(C)(C)CO2)[nH]c2c1C(=O)NC1(CCC1)C2 (single isomer, unassigned) [Example 131] and stop.
A. 980

Q. Specify GI50 for COc1c(Cl)cccc1Nc1c(-c2ccncc2OCC2CCCCO2)[nH]c2c1C(=O)NCC2C (single isomer, unassigned) [Example 48] and stop.
A. 611

Q. Specify GI50 for COc1c(Cl)cccc1Nc1c(-c2ccncc2OC[C@@H]2CCCO2)[nH]c2c1C(=O)N[C@H](C)C2 (single isomer, unassigned) and stop.
A. 331

====

Target: Ba/F3-EGFR-WT cells (Homo sapiens, UniProt P00533)
Sequence (P00533 whole entry, looked up, change not shown): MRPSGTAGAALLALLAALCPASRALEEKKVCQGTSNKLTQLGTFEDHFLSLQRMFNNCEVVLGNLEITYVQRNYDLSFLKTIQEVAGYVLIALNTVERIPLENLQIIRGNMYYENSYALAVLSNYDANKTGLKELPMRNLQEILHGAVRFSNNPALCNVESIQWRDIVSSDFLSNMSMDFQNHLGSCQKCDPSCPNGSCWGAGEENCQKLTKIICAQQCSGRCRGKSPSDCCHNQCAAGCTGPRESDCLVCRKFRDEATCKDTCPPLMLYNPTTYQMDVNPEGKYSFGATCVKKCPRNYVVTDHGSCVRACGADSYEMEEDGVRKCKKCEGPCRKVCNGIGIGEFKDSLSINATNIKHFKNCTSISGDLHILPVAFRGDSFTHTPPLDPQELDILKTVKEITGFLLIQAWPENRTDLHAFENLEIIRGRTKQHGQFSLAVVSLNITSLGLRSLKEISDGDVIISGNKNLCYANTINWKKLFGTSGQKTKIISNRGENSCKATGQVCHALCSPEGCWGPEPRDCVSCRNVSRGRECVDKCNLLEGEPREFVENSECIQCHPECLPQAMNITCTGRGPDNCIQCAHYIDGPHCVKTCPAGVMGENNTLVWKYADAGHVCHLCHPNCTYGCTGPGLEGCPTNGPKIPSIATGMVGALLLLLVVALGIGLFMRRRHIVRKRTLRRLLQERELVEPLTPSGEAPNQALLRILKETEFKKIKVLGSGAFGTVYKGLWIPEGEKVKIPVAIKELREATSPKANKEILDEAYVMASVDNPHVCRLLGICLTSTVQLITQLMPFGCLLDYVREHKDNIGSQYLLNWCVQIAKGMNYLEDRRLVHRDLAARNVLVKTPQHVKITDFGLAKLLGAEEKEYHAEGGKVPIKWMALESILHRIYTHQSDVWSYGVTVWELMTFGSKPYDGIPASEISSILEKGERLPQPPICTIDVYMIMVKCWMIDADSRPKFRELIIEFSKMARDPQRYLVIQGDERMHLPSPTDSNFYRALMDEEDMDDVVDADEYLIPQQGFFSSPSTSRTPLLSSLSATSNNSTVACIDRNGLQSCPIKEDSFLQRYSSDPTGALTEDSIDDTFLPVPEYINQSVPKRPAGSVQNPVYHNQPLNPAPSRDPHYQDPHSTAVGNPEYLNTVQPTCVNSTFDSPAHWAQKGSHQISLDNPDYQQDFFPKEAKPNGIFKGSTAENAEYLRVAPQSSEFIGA
Assay: Ba/F3 cell survival assay, wild type EGFR
Format: cell-based
Settings: Cell Titer-Glo, 48 h, with 10 ng/mL EGF; Table 4; read-out: BA/F3 (wild type) IC50
Readout name: GI50 (nM)
Unit nM implied. Number only.

Molecule	Observed
COc1c(Cl)cccc1Nc1c(-c2ccncc2OC[C@@H]2CN(C)CCO2)[nH]c2c1C(=O)N[C@@H]1CCC[C@H]21	643
COc1c(Cl)cccc1Nc1c(-c2ccncc2OCC2COC(C)(C)CO2)[nH]c2c1C(=O)NC1(CC1)C2 (single isomer, unassigned) [Example 133]	484
COc1c(Cl)cccc1Nc1c(-c2ccncc2OC[C@@H]2CN(C)CCO2)[nH]c2c1C(=O)N[C@H](C)C2	264
COc1c(Cl)cccc1Nc1c(-c2ccncc2OCC2(C)CCO2)[nH]c2c1C(=O)NCC2CCO (single isomer, unassigned) [Example 22]	2630
Cc1c(Cl)cccc1Nc1c(-c2ccncc2OCC2COCCO2)[nH]c2c1C(=O)NCC2C (single isomer, unassigned) [Example 68]	1380

Q. Specify GI50 for C[C@@H]1Cc2[nH]c(-c3ccncc3OCC3COCCO3)c(Nc3cccc(F)c3CC(F)F)c2C(=O)N1 (some centres unmarked) and stop.
A. 1400

Q. Specify GI50 for COc1c(Cl)cccc1Nc1c(-c2ccncc2OC[C@@H]2COCCN2C)[nH]c2c1C(=O)NCC2CCO (single isomer, unassigned) [Example 115] and stop.
A. 5420

Q. Specify GI50 for COCC(C)Oc1cnccc1-c1[nH]c2c(c1Nc1cccc(Cl)c1OC)C(=O)N[C@@H]1CCC[C@H]21 (single isomer, unassigned) [Example 51] and stop.
A. 412

Q. Specify GI50 for COc1c(Cl)cccc1Nc1c(-c2ccncc2OC[C@@H]2CCCO2)[nH]c2c1C(=O)NC(C(F)(F)F)C2 (single isomer, unassigned) [Example 39] and stop.
A. 4120

Q. Specify GI50 for `COc1c(Cl)cccc1Nc1c(-c2ccncc2OCC[C@@H]2CCCO2)[nH]c2c1C(=O)N[C@H](C)C2` and stop.
A. 519
